System: Staphylococcus hominis
Assay: Antibacterial activity against Staphylococcus hominis 1813 assessed as growth inhibition at 1 mg/mL after 24 hrs by agar-disk diffusion technique
Format: functional, organism-based
The source made the active and inactive calls. The rule behind the calls is not given here.
Field 'call' accepts T = active, F = inactive

Cc1ccc(/C=C/C(N)(S)NNC(=O)c2ccncc2)cc1 (stereo not given)    T
NC(=S)/C=C/c1ccccc1    T

## Task Outcome? NNC(=O)c1ccncc1
## Result F

## Task Hello, I am checking results. What call was entered for NC(S)(/C=C/c1ccccc1)NNC(=O)c1ccncc1 (stereo not given) ?
## Result T

## Task # lookup: test call for NC(S)(/C=C/c1ccc(Cl)cc1)NNC(=O)c1ccncc1 (stereo not given)
## Result T
